pIC50: −log10 of the molar value.
Measured pIC50 (ROCK2 (Homo sapiens (Human), UniProt O75116))
property.measured: pIC50

{"columns": ["molecule", "property.measured", "value.observed"],
 "data": [
  ["NC(=O)c1cccnc1O[C@H]1C[C@]2(C1)C[C@H](N1C(=O)NC(CCO)C1=O)C2 (stereo partly shown)", "pIC50", 5.82],
  ["NC(=O)c1cccnc1O[C@H]1C[C@]2(C1)C[C@H](N1C(=O)C(=O)N(CC3CCC3)C1=O)C2 (stereo partly shown)", "pIC50", 6.21]
]}

(a) NC(=O)c1cccnc1O[C@H]1C[C@]2(C1)C[C@H](N1C(=O)NC(CC3CCCCC3)C1=O)C2 (single isomer, unassigned)
(b) NC(=O)c1cccnc1O[C@H]1C[C@]2(C1)C[C@H](N1C(=O)N[C@@H](CCOCc3ccccc3)C1=O)C2 (stereo partly shown)
Larger number for pIC50: a , or b ? Write down the label attached to your selection. a

(I) C#CCC1NC(=O)N([C@H]2C[C@@]3(C[C@H](Oc4ncccc4C(N)=O)C3)C2)C1=O (stereo partly shown)
(II) [H][C@]1(Oc2ncccc2C(N)=O)C[C@]2(C[C@@H](N3C(=O)NCC(CC(C)C)C3=O)C2)C1 (stereo partly shown)
(III) NC(=O)c1cccnc1O[C@H]1C[C@]2(C1)C[C@H](N1C(=O)NC(CCC3CCCCCC3)C1=O)C2 (single isomer, unassigned) [Example 43]
Hey, quick one: sort these by pIC50, low to high? Give the order by naming the labels one after another as requested. I, II, III
